Molecular target: Prothrombin (Homo sapiens)
Experiment: Inhibition of thrombin
# strict inequality: Ki < 2 µM yields 1, everything else yields 0

smilesStr: N=C(N)c1cccc(C[C@H](NS(=O)(=O)c2ccc3ccccc3c2)C(=O)N2CCC(C3CCN(C(=N)N)CC3)CC2)c1
answerLabel: 1

smilesStr: CCC(=O)N1CCN(C(=O)[C@H](Cc2cccc(C(=N)N)c2)NS(=O)(=O)c2ccc3c(c2)C(=O)c2ccccc2C3=O)CC1
answerLabel: 1

Lookup: Here's an entry: CC(C)c1cc(C(C)C)c(S(=O)(=O)N[C@@H](Cc2cccc(C(=N)N)c2)C(=O)N2CCN(C(=O)C3CCN(C(=N)N)CC3)CC2)c(C(C)C)c1 . Is its Ki below 2 µM?
Found: 0

Lookup: Here's an entry: CC(C)c1cc(C(C)C)c(S(=O)(=O)N[C@@H](Cc2cccc(C(=N)N)c2)C(=O)N2CCN(C(=O)CCN)CC2)c(C(C)C)c1 . Is its Ki below 2 µM?
Found: 0

Lookup: Here's an entry: N=C(N)NCCCC1CCN(C(=O)[C@H](Cc2cccc(C(=N)N)c2)NS(=O)(=O)c2ccc3ccccc3c2)CC1 . Is its Ki below 2 µM?
Found: 1

Lookup: Here's an entry: CCC(C)(C)c1ccc(S(=O)(=O)N[C@@H](Cc2cccc(C(=N)N)c2)C(=O)N2CCN(C(=O)CCN=C(N)N)CC2)cc1 . Is its Ki below 2 µM?
Found: 1

Lookup: Here's an entry: N=C(N)c1cccc(C[C@H](NS(=O)(=O)c2cccc(NC(=O)CCCN)c2)C(=O)N2CCC(CCN)CC2)c1 . Is its Ki below 2 µM?
Found: 0

The origin of these recorded values is ChEMBL document CHEMBL1138903.
